# pIC50 against UniProt P25103, merged from multiple literature sources
# Sequence (P25103 whole entry): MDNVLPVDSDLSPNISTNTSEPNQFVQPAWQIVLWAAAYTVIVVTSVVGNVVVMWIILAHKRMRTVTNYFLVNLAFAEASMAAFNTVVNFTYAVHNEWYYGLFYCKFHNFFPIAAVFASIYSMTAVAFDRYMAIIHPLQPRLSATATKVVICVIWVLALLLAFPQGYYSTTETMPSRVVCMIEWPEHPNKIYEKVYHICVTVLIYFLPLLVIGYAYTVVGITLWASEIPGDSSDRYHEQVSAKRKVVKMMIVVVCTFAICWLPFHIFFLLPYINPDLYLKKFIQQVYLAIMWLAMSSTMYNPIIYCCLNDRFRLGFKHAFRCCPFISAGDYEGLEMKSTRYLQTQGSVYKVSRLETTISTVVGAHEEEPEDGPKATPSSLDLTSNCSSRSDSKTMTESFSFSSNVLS
Interpret pIC50 as the negative base-10 log of the concentration measured in mol/L.

{"columns": ["compound", "pIC50"],
 "data": [
  ["O=C(Cc1cc(C(F)(F)F)cc(C(F)(F)F)c1)NCC(c1ccc(F)cc1Cl)N1CCC(N2CCCCC2)CC1 (stereo not drawn)", 8.77],
  ["O=C(Cc1cc(C(F)(F)F)cc(C(F)(F)F)c1)NCC(c1ccc(F)c(Cl)c1)N1CCC(N2CCCCC2)CC1 (stereo not drawn)", 8.54],
  ["COc1ccc(-n2nnnc2C(F)(F)F)cc1CN[C@H]1CCN(C(C)=O)C[C@H]1c1ccccc1.Cl (racemic)", 10.31]
]}

I am curious: what pIC50 value has been reported for C[C@@H](OC1OCCN(Cc2n[nH]nc2CN(C)C)[C@H]1c1ccc(F)cc1)c1cc(C(F)(F)F)cc(C(F)(F)F)c1.Cl (stereo partly drawn) ?
9.72

I am curious: what pIC50 value has been reported for CCNC1CCC(COCc2cc(C(F)(F)F)cc(C(F)(F)F)c2)(c2ccccc2)CC1 (mixture of isomers) ?
7.85

I am curious: what pIC50 value has been reported for Cc1cc(C)cc(/C(F)=C2/CCC(NC(=O)c3ccnc4ccccc34)CC2Cc2ccccc2)c1 (racemic) ?
6.15

I am curious: what pIC50 value has been reported for CCNC(=O)N1CC[C@H](NCc2cc(OC(F)(F)F)ccc2OC)[C@H](c2ccccc2)C1 (racemic) ?
9.77

I am curious: what pIC50 value has been reported for COc1ccc(CC(=O)NCC(c2ccccc2OC)N2CCN(C3CCCCC3)CC2)cc1 (stereo not drawn) ?
5.66

====

# pIC50 against UniProt:P25103, merged from multiple literature sources
Interpret pIC50 as the negative base-10 log of the concentration measured in mol/L.

// known answers, use as guide
{"columns": ["compound", "system tested", "pIC50"],
 "data": [
  ["CC[C@](Cc1c[nH]c2ccccc12)(NC(=O)OCc1cc2ccccc2o1)C(=O)N[C@@H](C)c1ccccc1", "UniProt:P25103", 9.02],
  ["CN(CC[C@@H]1CC[C@H](OCc2cc(C(F)(F)F)cc(C(F)(F)F)c2)[C@H]1c1ccccc1)Cc1n[nH]c(=O)[nH]1 (racemic)", "UniProt:P25103", 8.31]
]}

Lookup: pIC50 / UniProt:P25103 / FC(F)(F)c1cc(COCC2(c3ccccc3)CCC(N3CCCCC3)CC2)cc(C(F)(F)F)c1 (mixture of isomers)
7.03

Lookup: pIC50 / UniProt:P25103 / COc1ccc(-n2nnnc2C(F)(F)F)cc1CN[C@H]1CCN(C(=O)CN(C)C(C)=O)C[C@H]1c1ccccc1 (racemic)
10.08

Lookup: pIC50 / UniProt:P25103 / COc1ccc(-n2nnnc2C(F)(F)F)cc1CN[C@H]1CCN(C(=O)N(C)C)C[C@H]1c1ccccc1 (racemic)
9.89

Lookup: pIC50 / UniProt:P25103 / O=C(Cc1cc(C(F)(F)F)cc(C(F)(F)F)c1)N1CCCCC1C(CN1CCC(N2CCCCC2)CC1)c1ccccc1 (stereo not drawn)
5.82

Lookup: pIC50 / UniProt:P25103 / CC(=O)N[C@@H](Cc1ccc(Cl)c(Cl)c1)C(=O)OCc1cc(C)cc(C)c1 (racemic)
7.52
